Taken from ChEMBL document CHEMBL4425170.

Experiment: Cmax in cynomolgus monkey at 2 mg/kg, po
Format: ADME, organism-based, Macaca fascicularis
Design: dose 2 mg/kg, route oral
Conditions: in vivo
quantity-measured: Cmax (nM)
Dear colleague, please return just the value in nM, with no unit written.

Ask | Report Cmax for CNC(=O)Nc1cc(Oc2cncc(C)c2)c(-c2ccc(OCC(C)(C)O)nc2)cn1 please.
Reply | 1150

---

Test: Oral bioavailability in cynomolgus monkey at 2 mg/kg
Type: ADME, organism-based, Macaca fascicularis
Settings: in vivo
quantity-measured: bioavailability

Ask | So what's the measured bioavailability for this one? CNC(=O)Nc1cc(Oc2cncc(C)c2)c(-c2ccc(OCC(C)(C)O)nc2)cn1
Reply | 70%

---

Test: in vivo
Conditions: mouse, po, 5 mg/kg
# bioavailability values compiled below
Give the figure together with its unit, number first.

Ask | Item under review: CNC(=O)Nc1cc(Oc2cncc(C)c2)c(-c2ccc(OCCO)nc2)cn1 . Reported bioavailability?
Reply | 6%

Shift focus to the following entry.
Ask | Which measured bioavailability value corresponds to CNC(=O)Nc1cc(Oc2cncc(C)c2)c(-c2ccc(OCC(C)(C)O)nc2)cn1 ?
Reply | 25%

---

Test: Terminal plasma concentration in ob/ob mouse at 30 mg/kg, po administered 30 mins prior to testing by oral glucose tolerance test
Type: ADME, organism-based
Conditions: read-out: Cp(T)
quantity-measured: concentration at 0.5 h (µM)
Numbers only; they are read as µM.

Ask | What value of concentration at 0.5 h has been reported for the following molecule? CNC(=O)Nc1cc(Oc2cncc(C)c2)c(-c2ccc(OCC(C)(C)O)nc2)cn1
Reply | 38
